settings: 333.15 K; 1000 kPa; Liquid; Vibrating tube method
metric: mass density (kg/m3)

CCCCCCCCC(=O)OC [methyl nonanoate] :: 840.72
CCCCCC(=O)OC [methyl hexanoate] :: 846.26
CCCCCCC(=O)OC [methyl heptanoate] :: 843.81
CCCCCCCC(=O)OC [methyl octanoate] :: 842.13
CCCCC(=O)OC [methyl pentanoate] :: 849.45
CCCC(=O)OC [methyl butanoate] :: 854.08

====

conditions: 323.15 K; 15000 kPa; Liquid; Vibrating tube method
metric: mass density (kg/m3)

CCCCCCCCC(=O)OC [methyl nonanoate] :: 860.21
CCCCCC(=O)OC [methyl hexanoate] :: 868.76
CCCCC(=O)OC [methyl pentanoate] :: 873.18
CCCCCCC(=O)OC [methyl heptanoate] :: 865.07
CCCCCCCC(=O)OC [methyl octanoate] :: 862.36
CCCC(=O)OC [methyl butanoate] :: 879.93
